Test system: P388 mouse leukemia cells
Protocol: Life-span-prolonging (anti-tumor) effect on mice subcutaneously inoculated with P388 mouse leukemia cells
Assay type: in vivo, mouse (CDF1 female)
Test Parameters: 0.1 mg/kg i.v. on days 1, 5 and 9; all marked ** (p < 0.01)
Readout Label: Survival days ave. ± s. d. (days)

CCCCCCCCCCCCCCCCCCCCCC[C@@H](O)C(=O)N[C@@H](CO[C@H]1O[C@H](CO)[C@H](O)[C@H](O[C@@H]2O[C@@H]([C@H](O)CO)[C@H](O)[C@H]2O)[C@H]1O)[C@H](O)[C@H](O)CCCCCCCCCCCCC(C)C [Compound 17]
14.8
CCCCCCCCCCCCCCCCCCCCCC[C@@H](O)C(=O)N[C@@H](CO[C@H]1O[C@H](CO)[C@H](O)[C@H](O[C@H]2O[C@H](CO)[C@H](O)[C@H](O)[C@H]2NC(C)=O)[C@H]1O[C@H]1O[C@H](CO)[C@@H](O)[C@H](O)[C@H]1O)[C@H](O)[C@H](O)CCCCCCCCCCCC(C)C [Compound 7]
15.8
CCCCCCCCCCCCCCCCCCCCCC[C@@H](O)C(=O)N[C@@H](CO[C@H]1O[C@H](CO)[C@H](O)[C@H](O[C@@H]2O[C@@H]([C@H](O)CO)[C@H](O)[C@H]2O)[C@H]1O)[C@H](O)[C@H](O)CCCCCCCCCCCCCC [Compound 16]
14.8
CCCCCCCCCCCCCCCCCCCCC[C@@H](O)C(=O)N[C@@H](CO[C@H]1O[C@H](CO)[C@H](O)[C@H](O[C@@H]2O[C@@H]([C@H](O)CO)[C@H](O)[C@H]2O)[C@H]1O)[C@H](O)[C@H](O)CCCCCCCCCCCC [Compound 11]
13.4
CCCCCCCCCCCCCCCCCCCCCCCCCC(=O)N[C@@H](CO[C@H]1O[C@H](CO)[C@H](O)[C@H](O)[C@H]1O)[C@H](O)[C@H](O)CCCCCCCCCCCCCC [Compound b, reference compound]
15.6
CCCCCCCCCCCCCCCCCCCCCC[C@@H](O)C(=O)N[C@@H](CO[C@H]1O[C@H](CO)[C@H](O)[C@H](O[C@H]2O[C@H](CO)[C@H](O)[C@H](O)[C@H]2NC(C)=O)[C@H]1O[C@H]1O[C@H](CO)[C@@H](O)[C@H](O)[C@H]1O)[C@H](O)[C@H](O)CCCCCCCCCCCC(C)C [Compound 5]
15.2
CCCCCCCCCCCCCCCCCCCCCC[C@@H](O)C(=O)N[C@@H](CO[C@H]1O[C@H](CO)[C@H](O)[C@H](O[C@H]2O[C@H](CO)[C@H](O)[C@H](O)[C@H]2NC(C)=O)[C@H]1O[C@H]1O[C@H](CO)[C@@H](O)[C@H](O)[C@H]1O)[C@H](O)[C@H](O)CCCCCCCCCCCCCC [Compound 8]
16.0
CCCCCCCCCCCCCCCCCCCC[C@@H](O)C(=O)N[C@@H](CO[C@H]1O[C@H](CO)[C@H](O)[C@H](O[C@@H]2O[C@@H]([C@H](O)CO)[C@H](O)[C@H]2O)[C@H]1O)[C@H](O)[C@H](O)CCCCCCCCCCCC [Compound 10]
13.8
CCCCCCCCCCCCCCCCCCCCCCCCCC(=O)N[C@@H](CO[C@H]1O[C@H](CO)[C@@H](O[C@H]2O[C@H](CO)[C@@H](O)[C@H](O)[C@H]2O)[C@H](O)[C@H]1O)[C@H](O)[C@H](O)CCCCCCCCCCCCCC [Compound 35]
14.8
CCCCCCCCCCCCCCCCCCCCCC[C@@H](O)C(=O)N[C@@H](CO[C@H]1O[C@H](CO)[C@H](O)[C@H](O[C@@H]2O[C@@H]([C@H](O)CO)[C@H](O)[C@H]2O)[C@H]1O)[C@H](O)[C@H](O)CCCCCCCCCCCC [Compound 12]
13.8
CCCCCCCCCCCCCCCCCCCCCC[C@@H](O)C(=O)N[C@@H](CO[C@H]1O[C@H](CO)[C@H](O)[C@H](O[C@H]2O[C@H](CO)[C@H](O)[C@H](O)[C@H]2NC(C)=O)[C@H]1O[C@H]1O[C@H](CO)[C@@H](O)[C@H](O)[C@H]1O)[C@H](O)[C@H](O)CCCCCCCCCCCCC [Compound 2]
15.8
CCCCCCCCCCCCCCCCCCCCCC[C@@H](O)C(=O)N[C@@H](CO[C@H]1O[C@H](CO)[C@H](O)[C@H](O[C@@H]2O[C@@H]([C@H](O)CO)[C@H](O)[C@H]2O)[C@H]1O)[C@H](O)[C@H](O)CCCCCCCCCCCC(C)C [Compound 15]
14.0
CCCCCCCCCCCCCCCCCCCCCC[C@@H](O)C(=O)N[C@@H](CO[C@H]1O[C@H](CO)[C@H](O)[C@H](O[C@@H]2O[C@@H]([C@H](O)CO)[C@H](O)[C@H]2O)[C@H]1O)[C@H](O)[C@H](O)CCCCCCCCCCC(C)C [Compound 13]
14.6
